Experiment: Oral toxicity according to OECD test guideline TG423
Type: in vivo
Conditions: in vivo, po, 2000 mg/kg
Procedure: As a safety test, AMES test was performed according to OECD test guideline TG471 (±S9 mix), and the result was negative. Oral toxicity was tested according to OECD test guideline TG423. […] Skin stimulation was tested according to OECD test guideline TG404, and the result was PII=0.5. Skin sensitizing potential was tested according to OECD test guideline TG442B.
measure: LD50

q: Data request, read-out LD50, for `C=CC(=O)N(C)CC(=O)OC`
a: ≥ 2000 mg/kg
